Values compiled from PubChem BioAssay (NCI).

// TGI lookup, one value per entry
System: SNB-78 CNS
Experiment: NCI tumour cell line growth inhibition, 48 h

- compound: "CCOC(=O)C(Cc1ccc([N+](=O)[O-])cc1)NC(=O)CC1c2ccccc2-c2ccccc21 (stereo not given)"
  system_tested: "SNB-78 CNS"
  assay_result: "65.3 µM"
- compound: "O=C(CCc1n[nH]c(=S)o1)Nc1cc(Cl)c(Cl)cc1Cl"
  system_tested: "SNB-78 CNS"
  assay_result: "> 100 µM"
- compound: "CCCCCC(=O)N[C@H]1CCc2cc(OC)c(OC)c(OC)c2-c2ccc(SC)c(=O)cc21"
  system_tested: "SNB-78 CNS"
  assay_result: "> 100 µM"

Per the records, this compound ( N#CC(/C(=N/N=C(N)N)C(=O)Nc1ccccc1[N+](=O)[O-])c1nc(-c2ccc([N+](=O)[O-])cc2)cs1 (stereo not given) ) has TGI equal to > 100 µM

Per the records, this compound ( `Oc1c(-c2ccccc2)nc2ccccn12` ) has TGI equal to > 100 µM

Per the records, this compound ( `COc1ccc2nc(C)cc(NCCCCCCCCCNc3cc(C)nc4ccc(OC)cc34)c2c1` ) has TGI equal to 26.4 µM

Per the records, this compound ( COS(=O)(=O)OCCC(NC(=O)OCc1ccccc1)C(=O)OCc1ccccc1 (stereo not given) ) has TGI equal to > 100 µM

Per the records, this compound ( O=C1OC(c2cccc(C(F)(F)F)c2)c2ccc3ccccc3c21 (stereo not given) ) has TGI equal to > 100 µM

Per the records, this compound ( `COC1=CC(=C(C#N)C(=Nc2ccccc2)SC)C=C(OC)C1=O` ) has TGI equal to > 100 µM

Per the records, this compound ( `N#Cc1c2nc3ccccc3nc2n2ccccc12` ) has TGI equal to > 100 µM

----------
System: UO-31 renal
Experiment: NCI tumour cell line growth inhibition, 48 h
measure: TGI

Recorded results for 3 compounds are shown here.
- compound: "COc1ccc(N=Nc2c(O)ccc3ccccc23)cc1"
  system_tested: "UO-31 renal"
  measure: "TGI"
  assay_result: "> 100 µM"
- compound: "COc1cc(/C=C/c2ccc(/C=C/c3cc(OC)c(OC)c(OC)c3)cc2)cc(OC)c1OC"
  system_tested: "UO-31 renal"
  measure: "TGI"
  assay_result: "> 84.6 µM"
- compound: "CC(C)(C)c1cc(Cc2ccc([N+](C)(C)C)cc2)c(O)c(C(C)(C)C)c1"
  system_tested: "UO-31 renal"
  measure: "TGI"
  assay_result: "> 100 µM"

The reported UO-31 renal TGI of N#CC(NCCc1ccccc1)c1ccccc1 (stereo not drawn) is > 100 µM

The reported UO-31 renal TGI of `COc1ccc2c(-c3ccc(OCCN(C)C)cc3)c(Oc3ccccc3)c(=O)oc2c1` is 13.9 µM

The reported UO-31 renal TGI of `CC(=O)CC(=O)Nc1c(C)[c]([Hg][O]C(C)=O)c(C)[c]([Hg][O]C(C)=O)[c]1[Hg][O]C(C)=O` is 40 µM

The reported UO-31 renal TGI of `C/C(=N\NC(C)(C)C)c1sc(-c2nc(C)c(/C(C)=N/NC(C)(C)C)s2)nc1C` is > 100 µM

----------
Test system: U251 CNS
Could you please pick one outcome from this set? active, inactive

Below, 3 compounds whose answers are already recorded.
- smiles: "O=C(O[C@H]1CN[C@H](C#Cc2cc3ncnc(Nc4ccc5c(cnn5Cc5ccccc5)c4)c3s2)C1)N1CCOCC1"
  category: "inactive"
- smiles: "CCc1c2c(nc3ccc(OC(=O)NCc4ccc(B5OC(C)(C)C(C)(C)O5)cc4)cc13)-c1cc3c(c(=O)n1C2)COC(=O)[C@]3(O)CC"
  category: "active"
- smiles: "CN1C(=O)/C(=C/c2c(Cl)[nH]c3ccccc23)c2ccccc21"
  category: "inactive"

Recorded test outcome, item `Cc1ccc(S(=O)(=O)NC2=NCCN2C(=S)SN2CCn3c2nsc3=S)cc1`
inactive

Recorded test outcome, item `C[C@H](O)CNc1cc(-c2[nH]c3cccnc3c2-c2ccc(F)cc2)ccn1`
inactive

----------
Test system: HCT-15 colon
Experiment: NCI tumour cell line growth inhibition, 48 h
// TGI lookup, one value per entry

Per the records, this compound ( `Cc1cc2c(c(C)c1O)C(C)(C)CN2C(=O)C(C)(C)C` ) has TGI equal to > 100 µM

Per the records, this compound ( CCOc1ccc(N=NC2C(=O)N(C(=O)CC(=O)Nc3ccc(C)cc3)N=C2C)cc1 (stereo not drawn) ) has TGI equal to > 100 µM

Per the records, this compound ( `Cc1nnc(N)nc1/C=C\c1ccc(N(C)C)cc1` ) has TGI equal to > 59.2 µM

----------
// TGI lookup, one value per entry
Tested on: SK-MEL-2 melanoma
Test: NCI tumour cell line growth inhibition, 48 h
I only need the number, in µM, no unit after it.

Recorded results for 2 compounds are shown here.
- compound: "Oc1ccccc1N=Cc1c(O)ccc2ccccc12"
  unit_name: "µM"
  assay_result: 40.5
- compound: "O=C1/C(=C/c2ccc(O)c(O)c2)COc2ccc(-c3ccccc3)cc21"
  unit_name: "µM"
  assay_result: 10.7

The reported SK-MEL-2 melanoma TGI of COc1ccc2c(c1)CCC1C2CCC2(C)C3=CC(O)CCC3CC12 (stereo unspecified) is 56.6

The reported SK-MEL-2 melanoma TGI of `COc1ccc2nc3cccc([N+](=O)[O-])c3c(NCCN(C)C)c2c1` is 0.272

The reported SK-MEL-2 melanoma TGI of `CN(C)c1ccc(/C=c2/c3ccccc3n3c2cc(-c2ccc(Cl)cc2)[n+]3C)cc1` is 0.845

The reported SK-MEL-2 melanoma TGI of CC1=NN(c2cccc(Cl)c2)C2(SCC(=O)N2c2nc3ccccc3s2)/C1=C\c1ccccc1 (stereo unspecified) is 46.7

The reported SK-MEL-2 melanoma TGI of `CC(C)OP(=O)(OC(C)C)C([CH2][Sn]([CH3])([CH3])[Cl])P(=O)(OC(C)C)OC(C)C` is 29.9

The reported SK-MEL-2 melanoma TGI of `CC(C)=CCC/C(C)=C/CC/C(C)=C/CCN(C)CCO` is 28.1

The reported SK-MEL-2 melanoma TGI of CC1CN=C(N(C(=O)Nc2ccccc2)c2ccccc2)S1 (stereo unspecified) is 40.5

The reported SK-MEL-2 melanoma TGI of CC(C)CCC[C@@H](C)[C@H]1CCC2C3=CCn4c(=O)ccc(=O)n4C3CC[C@@]21C (stereo partly specified) is 1.46

The reported SK-MEL-2 melanoma TGI of CC(=O)N1N=C(c2cc(C)ccc2O)CC1c1cccc(Cl)c1 (stereo unspecified) is 28.8

The reported SK-MEL-2 melanoma TGI of `COc1cc(-c2cc(/C=C/C(=O)c3ccc(N)cc3)[nH]n2)cc(OC)c1OC` is 7.53

The reported SK-MEL-2 melanoma TGI of `NC(=O)NC(=O)c1cccc(NC(=O)CI)c1` is 0.837

The reported SK-MEL-2 melanoma TGI of C=C(CN(C)C)C(=O)c1ccc(OC2OC(COC(C)=O)C(OC(C)=O)C(OC(C)=O)C2OC(C)=O)cc1 (stereo unspecified) is 33.3

The reported SK-MEL-2 melanoma TGI of `O=C1/C(=C/c2cccc([N+](=O)[O-])c2)N=C(c2ccccc2)N1c1nc2c(Cl)cc(Cl)cc2s1` is 48

The reported SK-MEL-2 melanoma TGI of `COc1ccc2nccc(NCCCN3CCN(CCCNc4ccnc5ccc(OC)cc45)CC3)c2c1` is 7.99

----------
Tested on: NCI-H226 lung
Test: NCI tumour cell line growth inhibition, 48 h
measure: GI50

Recorded results for 3 compounds are shown here.
- compound: "N#Cc1c(N)nc(NCc2ccccc2)c(C#N)c1-c1ccc(Cl)cc1"
  GI50: "10.6 µM"
- compound: "CCC1=C(C)c2cc3[n-]c(cc4nc(c(C=O)c5[n-]c(cc1n2)c(C)c5CC)C(C)=C4CC)c(C)c3CC.[Ni+2]"
  GI50: "> 100 µM"
- compound: "CN1C(=O)N(C)C2C1NN=c1s/c(=C\\c3ccccc3F)c(=O)n12 (centres undefined)"
  GI50: "1.23 µM"

// switching to the query compound
Per the records, this compound ( `CC(C)OP(=O)(OC(C)C)C([CH2][Sn]([CH3])([CH3])[Cl])P(=O)(OC(C)C)OC(C)C` ) has GI50 equal to 21.2 µM

----------
Tested on: HCT-116 colon
Experiment: NCI tumour cell line growth inhibition, 48 h
measure: GI50

Recorded results for 3 molecules are shown here.
- smiles: "O=C1c2ccccc2C(=O)c2c1ccc(C(Br)Br)c2Cl"
  system_tested: "HCT-116 colon"
  measure: "GI50"
  assay_result: "1.58 µM"
- smiles: "Cc1ccc(-c2cc3c(NC(=O)C4CC4)ncnc3o2)cc1"
  system_tested: "HCT-116 colon"
  measure: "GI50"
  assay_result: "> 25 µM"
- smiles: "CCC1=C(C)c2cc3[n-]c(cc4nc(c(C=O)c5[n-]c(cc1n2)c(C)c5CC)C(C)=C4CC)c(C)c3CC.[Ni+2]"
  system_tested: "HCT-116 colon"
  measure: "GI50"
  assay_result: "> 100 µM"

Per the records, this molecule ( `Oc1ccccc1N=Cc1c(O)ccc2ccccc12` ) has GI50 equal to 13 µM
